system-tested: Bromodomain-containing protein 4 (Homo sapiens, UniProt O60885)
method-description: Inhibition of GST-tagged human BRD4 bromodomain1 using H4KAc 5/8/12/16 peptide as substrate incubated overnight by HTRF assay
pIC50: −log10 of the molar value.
property-name: pIC50

smiles-repr | reported
CCCCn1c(=O)[nH]c(=O)c2c1nc(CSc1n[nH]c(N)n1)n2CC | < 4.30

###

system-tested: Bromodomain-containing protein 3 (Homo sapiens)
Sequence (Q15059 whole entry): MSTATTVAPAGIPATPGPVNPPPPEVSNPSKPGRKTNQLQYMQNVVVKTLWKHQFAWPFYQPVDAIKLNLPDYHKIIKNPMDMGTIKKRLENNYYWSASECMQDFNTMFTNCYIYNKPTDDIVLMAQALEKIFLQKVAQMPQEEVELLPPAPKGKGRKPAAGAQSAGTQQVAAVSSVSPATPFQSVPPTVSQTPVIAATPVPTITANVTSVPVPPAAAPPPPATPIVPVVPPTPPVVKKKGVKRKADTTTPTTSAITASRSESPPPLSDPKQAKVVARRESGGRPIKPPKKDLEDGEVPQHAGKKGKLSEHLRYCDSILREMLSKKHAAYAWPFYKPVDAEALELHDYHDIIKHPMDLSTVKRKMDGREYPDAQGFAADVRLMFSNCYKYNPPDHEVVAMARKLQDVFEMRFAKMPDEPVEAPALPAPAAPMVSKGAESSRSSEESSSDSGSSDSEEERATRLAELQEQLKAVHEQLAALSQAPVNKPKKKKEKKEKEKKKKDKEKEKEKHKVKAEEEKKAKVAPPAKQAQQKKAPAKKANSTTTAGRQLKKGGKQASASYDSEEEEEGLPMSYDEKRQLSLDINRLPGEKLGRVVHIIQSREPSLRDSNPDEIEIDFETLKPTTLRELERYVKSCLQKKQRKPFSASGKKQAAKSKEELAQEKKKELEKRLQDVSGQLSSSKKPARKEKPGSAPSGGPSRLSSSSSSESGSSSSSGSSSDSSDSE
method-description: Inhibition of human BRD3 bromodomain2 using H4KAc 5/8/12/16 peptide as substrate incubated overnight by HTRF assay
pIC50: −log10 of the molar value.
property-name: pIC50

smiles-repr | reported
CCn1cnc2c1c(=O)[nH]c(=O)n2Cc1ccc(Cl)cc1 | 5.74
